This collection of values is drawn from ChEMBL document CHEMBL1811891.

assay: Half life in dog at 3 mg/kg, po; assay type: ADME, organism-based, Canis lupus familiaris; design: dose 3 mg/kg, route oral; conditions: in vivo
ASSAY READOUT: half-life (min)
One number for each entry, in min.

# lookup: half-life of CCCCN1C(=O)[C@@H]([C@H](O)C2CCCCC2)NC(=O)C12CCN(Cc1ccc(Oc3ccc(C(=O)O)cc3)cc1)CC2.Cl [APLAVIROC HYDROCHLORIDE]
270

* * *

Please go through the items and note down their Stability.
test system: Liver microsomes; experiment: Metabolic stability in human liver microsomes assessed as compound remaining after 15 mins; type: ADME, Microsome; details: 0.25 h
Answers are plain numbers, in %.

// below: answered compounds
{"columns": ["STRUCTURE NOTATION", "TARGET SYSTEM", "Stability / %"],
 "data": [
  ["CCCCN1C(=O)[C@@H]([C@H](O)C2CC2)NC(=O)C12CCN(Cc1ccc(Oc3ccc(C(=O)O)cc3)cc1)CC2.Cl", "Liver microsomes", 89],
  ["CCCCN1C(=O)[C@@H]([C@H](O)C2CCCCC2)NC(=O)C12CCN(Cc1ccc(Oc3ccc(NS(C)(=O)=O)cc3)cc1)CC2.Cl", "Liver microsomes", 1.8]
]}

Request the reported Stability associated with CCCCN1C(=O)[C@@H]([C@H](O)C(C)C)NC(=O)C12CCN(Cc1ccc(Oc3ccc(C(=O)O)cc3)cc1)CC2.Cl
98

* * *

tested on: Human immunodeficiency virus 1; assay: microbe, parasite or virus in culture; conditions: Human immunodeficiency virus 1, Ba-L
Description: Antiviral activity against R5 tropic HIV1 Ba-L infected PBMC assessed as inhibition of viral p24 antigen expression
For each of the compounds below, state its IC90.

{"columns": ["COMPOUND", "IC90"],
 "data": [
  ["CCCCN1C(=O)[C@@H]([C@H](O)C2CCCCC2)NC(=O)C12CCN(Cc1ccc(Oc3ccc(C(=O)O)cc3)cc1)CC2.Cl [APLAVIROC HYDROCHLORIDE]", "12 nM"]
]}

Give IC90 for each of the items listed below.
1. COC[C@@H](c1ccc(C(F)(F)F)cc1)N1CCN(C2(C)CCN(C(=O)c3c(C)ncnc3C)CC2)C[C@@H]1C
2. Cc1c(O)cccc1C(=O)N[C@@H](CSc1ccccc1)[C@H](O)CN1C[C@H]2CCCC[C@H]2C[C@H]1C(=O)NC(C)(C)C

["79 nM", "105 nM"]
